Hi there, I'd appreciate the recorded % SIRP alpha Inhibition for every entry that follows.
Biological target: T1, recombinant human CD47 extracellular domain (ECD), His-tagged, dimer (human, UniProt Q08722 19-141)
T1 construct: Dimeric fraction of the same His-tagged ECD; also called His-tagged CD47-ECD dimer protein
Test: MSD; CD47-ECD dimer binding to captured SIRP alpha-Fc, mAb 10 µg/ml

Solved entries:
binder	measured_quantity	result
C47B238 (antibody, V domains shown, human IgG2sigma/kappa) VH: EVQLVQSGAEVKKPGESLKISCKGSGYSFTSYWIGWVRQMPGKGLEWMGIIYPGDSDTRYSPSFQGQVTISADKSISTAYLQWSSLKASDTAMYYCARVGRFASHQLDYWGQGTLVTVSS VL: EIVLTQSPATLSLSPGERATLSCRASQSVGSRLAWYQQKPGQAPRLLIYWASTRATGIPARFSGSGSGTDFTLTISSLEPEDFAVYYCQQGAYWPFTFGQGTKVEIK	% SIRP alpha Inhibition	99.1%
C47B226 (antibody, V domains shown, human IgG2sigma/kappa; also called C27B226) VH: EVQLVQSGAEVKKPGESLKISCKGSGYSFDDYWIGWVRQMPGKGLEWMGIIYPGDSDTRYSPSFQGQVTISADKSISTAYLQWSSLKASDTAVYYCARVGRFASHQLDYWGQGTLVTVSS VL: EIVLTQSPATLSLSPGERATLSCRASQSVNNRLAWYQQKPGQAPRLLIHWASTRAIGIPARFSGSGSGTDFTLTISSLEPEDFAVYYCQQGASWPFTFGQGTKVEIK	% SIRP alpha Inhibition	100%

Could you now consider this next binder?
Record summary for C47B230 (antibody, V domains shown, human IgG2sigma/kappa) VH: EVQLVQSGAEVKKPGESLKISCKGSGYSFTDDWIGWVRQMPGKGLEWMGIIYPGDSDTRYSPSFQGQVTISADKSISTAYLQWSSLKASDTAVYYCARVGRFASHQLDYWGQGTLVTVSS VL: EIVLTQSPATLSLSPGERATLSCRASQSVNKALAWYQQKPGQAPRLLIYGASNRATGIPARFSGSGSGTDFTLTISSLEPEDFAVYYCQQGKGWPFTFGQGTKVEIK : reported % SIRP alpha Inhibition = 28.4%
